Origin of measurements: paper PMC10663500

TGT: T1, human programmed cell death protein 1 (hPD-1) C93S (aa 24-167) (Homo sapiens, UniProt Q15116, C93S)
T1 construct: made as a fusion with a TEV site and human Fc; the Fc was cut off with TEV protease; source: Expi293F, purified (Protein A, TEV cleavage of Fc, SEC; monomer fractions); not shown: Fc (human), C-terminal, cleaved
ASSAY INFO: SPR; Carterra LSA; Fab from the ammonium sulfate precipitate of the culture supernatant immobilised on a NiHC200M chip; hPD-1 (1-1024 nM) or mPD-1-Fc (4-1024 nM) as analyte, fourfold dilution series, no regeneration; HBS-EP pH 7.4, 25 °C; medians over the spots of a construct, KD = koff/kon
TEST CONTEXT: one partner purified
ENDPOINT LABEL: koff (s⁻¹)
Answers are plain numbers, in s⁻¹.

Please review the following examples before continuing.
BINDER	koff / s⁻¹
toripalimab Fab H.E33A (Fab, V domains shown, heavy chain of Sm3 with this change; numbers count from the chain's first residue; as the light chain of Sm3; source: Brevibacillus, culture supernatant (ammonium sulfate precipitate); not shown: 6xHis, C-terminal, kept; 6xHN, C-terminal, kept) VH: QGQLVQSGAEVKKPGASVKVSCKASGYTFTDYAMHWVRQAPIHGLEWIGVIESETGGTAYNQKFKGRVTITADKSTSTAYMELSSLRSEDTAVYYCAREGITTVATTYYWYFDVWGQGTTVTVSS VL: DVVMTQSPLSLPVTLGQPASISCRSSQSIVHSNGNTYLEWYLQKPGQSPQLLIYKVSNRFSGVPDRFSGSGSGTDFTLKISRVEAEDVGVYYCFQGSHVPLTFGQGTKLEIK	1.31e-05
toripalimab Fab H.G57A (Fab, V domains shown, heavy chain of Sm3 with this change; numbers count from the chain's first residue; as the light chain of Sm3; source: Brevibacillus, culture supernatant (ammonium sulfate precipitate); not shown: 6xHis, C-terminal, kept; 6xHN, C-terminal, kept) VH: QGQLVQSGAEVKKPGASVKVSCKASGYTFTDYEMHWVRQAPIHGLEWIGVIESETGATAYNQKFKGRVTITADKSTSTAYMELSSLRSEDTAVYYCAREGITTVATTYYWYFDVWGQGTTVTVSS VL: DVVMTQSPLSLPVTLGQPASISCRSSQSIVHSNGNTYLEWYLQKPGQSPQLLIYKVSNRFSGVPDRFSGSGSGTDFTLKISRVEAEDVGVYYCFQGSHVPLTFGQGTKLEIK	1.47e-05
toripalimab Fab L.P100V (Fab, V domains shown, as the heavy chain of Sm3; light chain of Sm3 with this change; numbers count from the chain's first residue; source: Brevibacillus, culture supernatant (ammonium sulfate precipitate); not shown: 6xHis, C-terminal, kept; 6xHN, C-terminal, kept) VH: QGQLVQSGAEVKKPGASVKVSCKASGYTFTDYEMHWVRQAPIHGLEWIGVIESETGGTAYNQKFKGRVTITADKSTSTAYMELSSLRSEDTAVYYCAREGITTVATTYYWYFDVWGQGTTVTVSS VL: DVVMTQSPLSLPVTLGQPASISCRSSQSIVHSNGNTYLEWYLQKPGQSPQLLIYKVSNRFSGVPDRFSGSGSGTDFTLKISRVEAEDVGVYYCFQGSHVVLTFGQGTKLEIK	6.3e-05
toripalimab Fab L.S26A (Fab, V domains shown, as the heavy chain of Sm3; light chain of Sm3 with this change; numbers count from the chain's first residue; source: Brevibacillus, culture supernatant (ammonium sulfate precipitate); not shown: 6xHis, C-terminal, kept; 6xHN, C-terminal, kept) VH: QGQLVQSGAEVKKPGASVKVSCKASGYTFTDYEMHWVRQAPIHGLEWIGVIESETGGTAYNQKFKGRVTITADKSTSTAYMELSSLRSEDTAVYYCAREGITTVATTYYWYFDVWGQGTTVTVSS VL: DVVMTQSPLSLPVTLGQPASISCRSAQSIVHSNGNTYLEWYLQKPGQSPQLLIYKVSNRFSGVPDRFSGSGSGTDFTLKISRVEAEDVGVYYCFQGSHVPLTFGQGTKLEIK	1.95e-05
toripalimab Fab H.E52Y (Fab, V domains shown, heavy chain of Sm3 with this change; numbers count from the chain's first residue; as the light chain of Sm3; source: Brevibacillus, culture supernatant (ammonium sulfate precipitate); not shown: 6xHis, C-terminal, kept; 6xHN, C-terminal, kept) VH: QGQLVQSGAEVKKPGASVKVSCKASGYTFTDYEMHWVRQAPIHGLEWIGVIYSETGGTAYNQKFKGRVTITADKSTSTAYMELSSLRSEDTAVYYCAREGITTVATTYYWYFDVWGQGTTVTVSS VL: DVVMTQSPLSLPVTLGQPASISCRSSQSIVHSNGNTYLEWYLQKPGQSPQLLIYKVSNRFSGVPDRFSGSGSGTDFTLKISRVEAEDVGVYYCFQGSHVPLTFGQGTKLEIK	0.000629

Please state, for each entry, its recorded koff.
1. toripalimab Fab L.P100K (Fab, V domains shown, as the heavy chain of Sm3; light chain of Sm3 with this change; numbers count from the chain's first residue; source: Brevibacillus, culture supernatant (ammonium sulfate precipitate); not shown: 6xHis, C-terminal, kept; 6xHN, C-terminal, kept) VH: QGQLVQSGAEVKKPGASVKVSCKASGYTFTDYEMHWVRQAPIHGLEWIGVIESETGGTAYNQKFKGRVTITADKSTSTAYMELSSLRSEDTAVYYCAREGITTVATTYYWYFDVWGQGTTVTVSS VL: DVVMTQSPLSLPVTLGQPASISCRSSQSIVHSNGNTYLEWYLQKPGQSPQLLIYKVSNRFSGVPDRFSGSGSGTDFTLKISRVEAEDVGVYYCFQGSHVKLTFGQGTKLEIK
2. toripalimab Fab L.V99H (Fab, V domains shown, as the heavy chain of Sm3; light chain of Sm3 with this change; numbers count from the chain's first residue; source: Brevibacillus, culture supernatant (ammonium sulfate precipitate); not shown: 6xHis, C-terminal, kept; 6xHN, C-terminal, kept) VH: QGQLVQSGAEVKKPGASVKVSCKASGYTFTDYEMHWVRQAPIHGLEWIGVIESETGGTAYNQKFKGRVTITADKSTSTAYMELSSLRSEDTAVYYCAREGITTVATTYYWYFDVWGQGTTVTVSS VL: DVVMTQSPLSLPVTLGQPASISCRSSQSIVHSNGNTYLEWYLQKPGQSPQLLIYKVSNRFSGVPDRFSGSGSGTDFTLKISRVEAEDVGVYYCFQGSHHPLTFGQGTKLEIK

Marked response:
5.19e-05
0.000239

Exam item: Requested read-out: koff. Entry: toripalimab Fab L.L101W (Fab, V domains shown, as the heavy chain of Sm3; light chain of Sm3 with this change; numbers count from the chain's first residue; source: Brevibacillus, culture supernatant (ammonium sulfate precipitate); not shown: 6xHis, C-terminal, kept; 6xHN, C-terminal, kept) VH: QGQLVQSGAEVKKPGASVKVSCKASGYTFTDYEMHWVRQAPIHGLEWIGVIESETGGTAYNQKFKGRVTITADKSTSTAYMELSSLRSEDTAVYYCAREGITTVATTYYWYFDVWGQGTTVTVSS VL: DVVMTQSPLSLPVTLGQPASISCRSSQSIVHSNGNTYLEWYLQKPGQSPQLLIYKVSNRFSGVPDRFSGSGSGTDFTLKISRVEAEDVGVYYCFQGSHVPWTFGQGTKLEIK
Marked response: 0.0322
